Hey, just so you know, these numbers are from ChEMBL document CHEMBL1240359.

Assay Name: Drug level in rabbit brain at 2 mg/kg/day, iv for 8 days measured 30 mins after last dose
Assay type: ADME, organism-based, Oryctolagus cuniculus
Set-up: route intravenous
Condition Details: read-out: Drug uptake
Starred links: 1 amine or outer side, 2 acyl side, 3 side chain; linkers in the order of their positions; H or OH if unused. Positions of bridges follow the written chain, without caps; N, C: chain ends. Non-standard residues stand in square brackets, D forms with d. Residues, ends and D or L forms follow the SMILES beside them. *: point of attachment. hTyr(3S-OH,4S-OH,3'-OSO3H) = N[C@H](C(=O)O)[C@H](O)[C@@H](O)c1ccc(O)c(OS(=O)(=O)O)c1; Orn(4R-OH,5R-OH) = O=C([C@H](C[C@@H](O)[C@@H](O)N[*:3])N[*:1])[*:2]; Pro(3S-OH,4S-Me) = C[C@H]1CN[C@H](C(=O)O)[C@H]1O; X1 = CCCCCOc1ccc(-c2cc(-c3ccc(C(=O)*)cc3)no2)cc1; Gln(3R-OH) = NC(=O)C[C@@H](O)[C@H](N)C(=O)O; Hyp = O=C(O)[C@@H]1C[C@@H](O)CN1
Readout Type: concentration at 0.5 h (ng/g)
All answers are understood in ng/g, so give the number only.

Given CCCCCOc1ccc(-c2cc(-c3ccc(C(=O)N[C@H]4C[C@@H](O)[C@@H](O)NC(=O)[C@@H]5[C@@H](O)[C@@H](C)CN5C(=O)[C@H]([C@H](O)CC(N)=O)NC(=O)[C@H]([C@H](O)[C@@H](O)c5ccc(O)c(OS(=O)(=O)O)c5)NC(=O)[C@@H]5C[C@@H](O)CN5C(=O)[C@H]([C@@H](C)O)NC4=O)cc3)no2)cc1 [MICAFUNGIN] (X1-[Orn(4R-OH,5R-OH)]T[Hyp][hTyr(3S-OH,4S-OH,3'-OSO3H)][Gln(3R-OH)][Pro(3S-OH,4S-Me)]; lactam 1-C) , state its recorded concentration at 0.5 h. 180
